The values you see were collected from patent US12239645B2.

- Assay protocol: MAD study, two additional single-dose cohorts: pharmacokinetics
- Format: in vivo, human
- Reported conditions: human, plasma, oral, 120 mg, 120 mg single dose, fed moderate fat meal; read-out: AUC(0-12), Mean
- Description: A multiple ascending dose (MAD) study of Compound 1 with two additional single-dose cohorts was also completed. […] In the MAD study, multiple-dose pharmacokinetics and pharmacodynamics of Compound 1 were evaluated in four dose groups administered Compound 1 (40, 80, 120 and 200 mg BID) in the fasted state for 14-days (Table 3). […]
Assay readout: AUC(0-t) (ng·h/mL)
Numbers only here, please. The scale is ng·h/mL.

Req: Give the value of AUC(0-t) reported for the following: CC(=O)c1nn(CC(=O)N2[C@H](C(=O)Nc3nc(Br)ccc3C)C[C@@]3(C)C[C@@H]23)c2ccc(-c3cnc(C)nc3)cc12 [Compound 1]
Resp: 1250

###

- Assay protocol: Phase I single ascending dose (SAD) study: plasma and urine pharmacokinetics
- Format: in vivo, human
- Reported conditions: human, urine, oral, 40 mg, 40 mg single dose, fasted, urine; read-out: CLr, GM (converted)
Assay readout: CL renal (mL/min)
Numbers only here, please. The scale is mL/min.

Req: Give the value of CL renal reported for the following: CC(=O)c1nn(CC(=O)N2[C@H](C(=O)Nc3nc(Br)ccc3C)C[C@@]3(C)C[C@@H]23)c2ccc(-c3cnc(C)nc3)cc12
Resp: 2.67

###

- Assay protocol: Multiple ascending dose (MAD) study: multiple-dose pharmacokinetics
- Type: in vivo, human
- Reported conditions: human, plasma, oral, 40 mg, 40 mg BID × 14 Days, Day 1; read-out: AUC(0-12), Mean
Assay readout: AUC(0-t)

Req: Give the value of AUC(0-t) reported for the following: CC(=O)c1nn(CC(=O)N2[C@H](C(=O)Nc3nc(Br)ccc3C)C[C@@]3(C)C[C@@H]23)c2ccc(-c3cnc(C)nc3)cc12 [Compound 1]
Resp: 392 ng·h/mL

###

- Assay protocol: Phase I single ascending dose (SAD) study: plasma and urine pharmacokinetics
- Type: in vivo, human
- Reported conditions: human, plasma, oral; 40 mg to 120 mg single dose; read-out: Median tmax, range over dose groups
Assay readout: Tmax

Req: Give the value of Tmax reported for the following: CC(=O)c1nn(CC(=O)N2[C@H](C(=O)Nc3nc(Br)ccc3C)C[C@@]3(C)C[C@@H]23)c2ccc(-c3cnc(C)nc3)cc12
Resp: 1.5 to 2.75 h

###

- Assay protocol: Phase I single ascending dose (SAD) study: plasma and urine pharmacokinetics
- Type: in vivo, human
- Reported conditions: human, urine, oral, 80 mg, 80 mg single dose, fasted, urine; read-out: CLr, GM (converted)
Assay readout: CL renal
Please don't drop the unit; write it after the number.

Req: Give the value of CL renal reported for the following: CC(=O)c1nn(CC(=O)N2[C@H](C(=O)Nc3nc(Br)ccc3C)C[C@@]3(C)C[C@@H]23)c2ccc(-c3cnc(C)nc3)cc12 [Compound 1]
Resp: 3 mL/min

###

- Assay protocol: Multiple ascending dose (MAD) study: multiple-dose pharmacokinetics
- Format: in vivo, human
- Reported conditions: human, plasma, oral, 120 mg, 120 mg BID × 14 Days, Day 1; read-out: Cmax, Mean
Assay readout: Cmax (ng/mL)
Numbers only here, please. The scale is ng/mL.

Req: Give the value of Cmax reported for the following: CC(=O)c1nn(CC(=O)N2[C@H](C(=O)Nc3nc(Br)ccc3C)C[C@@]3(C)C[C@@H]23)c2ccc(-c3cnc(C)nc3)cc12 [Compound 1]
Resp: 353
